# PROTOCOL_DESCRIPTION: A CellTox Green Cytotoxicity Assay to monitor cytotoxicity in HEK293 cells - 32 hour (AID 1224881); also: nearly all actives have a fitted effect of over 40% in size
# COND: CellTox Green fluorescence; series mostly up to 76.8 µM
Results filed as inconclusive are left out. The source made the active and inactive calls. Calls follow the shape of the dose curve; as a rule, active = well fitted activation curve with a large enough effect in the repeat runs; inconclusive = weak or mixed curves; inactive = flat fitted curve, though single readings scatter.
Possible outcomes: active, inactive

INSERT INTO assay_data (compound, group) VALUES
  ('COC(=O)C(C)=O', 'inactive'),
  ('C=Cc1c(C)c2cc3[nH]c(cc4nc(cc5nc(cc1[nH]2)C(C)=C5CCC(=O)O)C(CCC(=O)O)=C4C)c(C)c3C=C', 'inactive'),
  ('CC(=O)c1ccc2c(c1)[C@H](NC(=O)c1ccc(F)cc1)[C@@H](O)C(C)(C)O2', 'inactive'),
  ('C=CCCCCCC', 'inactive'),
  ('CN1CCN(C2=Nc3cc(Cl)ccc3Nc3ccccc32)CC1', 'inactive'),
  ('Cc1occc1S', 'inactive'),
  ('CCCCCOC(=O)COc1cc(N2C(=O)C3=C(CCCC3)C2=O)c(F)cc1Cl', 'inactive'),
  ('CC1(C)[C@H]2CC[C@]1(C)[C@H](O)C2', 'inactive'),
  ('O=C(O)[C@@H]1[C@H]2C[C@H]3c4[nH]c5ccccc5c4CCN3C[C@@H]2CC[C@@H]1O', 'inactive'),
  ('O=c1c2ccccc2nnn1CCl', 'inactive'),
  ('CC1=CCC(C(C)C)C=C1 (centres undefined)', 'inactive'),
  ('CCCCOC(O)CC (centres undefined)', 'inactive'),
  ('CCCCCCCCCO', 'inactive'),
  ('O=C(O)C(c1ccc(Cl)cc1)c1ccc(Cl)cc1', 'inactive'),
  ('Cc1cccc(Oc2ccccc2)c1', 'inactive'),
  ('CC(=O)/C(C)=C/C1C(C)=CCCC1(C)C (centres undefined)', 'active'),
  ('CC(C)(C)C1CCCCC1O (centres undefined)', 'inactive'),
  ('CC(=O)/C=C/C1C(C)=CCCC1(C)C (centres undefined)', 'inactive'),
  ('CC(O)C1CCCCC1 (centres undefined)', 'inactive'),
  ('CC(Cc1cccc(C(F)(F)F)c1)NCCOC(=O)c1ccccc1 (centres undefined)', 'active'),
  ('O=C1CCCCCO1', 'inactive'),
  ('CC(C)c1ccccc1C(C)C', 'inactive'),
  ('COc1ccc(OC)c(OC)c1', 'inactive'),
  ('NCCCN(CCO)CCO', 'inactive'),
  ('C=CC(=O)OCCOC(=O)CCC(=O)O', 'inactive'),
  ('CN1CCC(=C2c3ccccc3C=Cc3ccccc32)CC1', 'inactive'),
  ('CCc1nn(C2CCCCC2)c2cc(C3(C#N)CCC(C(=O)O)CC3)ccc12 (centres undefined)', 'inactive'),
  ('CN(C)CC/C=C1\c2ccccc2COc2ccccc21', 'inactive'),
  ('Cc1nc2ccccc2n1Cc1ccc(Cl)cc1', 'inactive');

----------
# key: entry, value: max activation
# TARGET: Nuclear receptor subfamily 1 group I member 2 (Rattus norvegicus) (UniProt Q9R1A7)
# Sequence (Q9R1A7 whole entry, looked up): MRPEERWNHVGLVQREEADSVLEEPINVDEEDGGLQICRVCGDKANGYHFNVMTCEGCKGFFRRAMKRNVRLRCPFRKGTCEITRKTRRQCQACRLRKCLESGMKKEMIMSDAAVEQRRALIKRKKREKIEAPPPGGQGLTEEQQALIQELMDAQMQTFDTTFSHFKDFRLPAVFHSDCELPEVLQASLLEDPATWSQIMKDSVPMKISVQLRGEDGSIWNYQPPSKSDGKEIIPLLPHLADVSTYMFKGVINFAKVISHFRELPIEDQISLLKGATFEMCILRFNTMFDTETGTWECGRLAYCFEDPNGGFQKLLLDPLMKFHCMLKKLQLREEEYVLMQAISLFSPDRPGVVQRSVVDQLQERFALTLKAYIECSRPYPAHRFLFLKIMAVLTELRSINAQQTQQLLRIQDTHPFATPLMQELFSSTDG
# PROTOCOL_DESCRIPTION: Rat pregnane X receptor (rPXR) activation by small molecules, qHTS assay (AID 1346983); also: % is scaled to controls: 0 for no effect and ±100 for the full control effect; nearly all actives have a fitted effect of over 20% in size
# COND: rPXR luciferase reporter cells, One-Glo luminescence, 24 h; active compounds read high
Results filed as inconclusive are left out.
QUANTITY_KIND: max activation (%)

INSERT INTO results (compound, quantity_kind, quantity_unit, endpoint_result) VALUES
  ('Cc1ccccc1N=Nc1ccc(N=Nc2c(O)ccc3ccccc23)c(C)c1', 'max activation', '%', 6.7),
  ('COc1ccccc1OC(=O)Oc1ccccc1OC', 'max activation', '%', -1.11),
  ('O=C(Nc1ccccc1)OCC(CN1CCCCC1)OC(=O)Nc1ccccc1 (configuration not stated)', 'max activation', '%', 0.646),
  ('Cc1ccc(C(=O)C(C)CN2CCCCC2)cc1 (configuration not stated)', 'max activation', '%', -1.62),
  ('Cn1c(NCCN(CCO)CCCc2ccc([N+](=O)[O-])cc2)cc(=O)n(C)c1=O', 'max activation', '%', -2.3),
  ('CC[C@H](C)[C@H](N)C(=O)O', 'max activation', '%', -0.0819),
  ('CC1(C)CCC(C)(C)c2cc(NC(=O)c3ccc(C(=O)O)cc3)ccc21', 'max activation', '%', -8.01);
